- Tested on: TNF-α induced IL-8 production in human whole blood
- Assay Info: Inhibition of TNF-α induced IL-8 in 50% human whole blood
- Assay type: cell-based
- Measurement Parameters: read-out: WB TNF/IL8 IC50; TNF-α (1 nM) induced IL-8, 50% human whole blood, 16-18 hours
Measured Attribute: pIC50
Give bare numbers, as −log10 of the molar value.

The measured pIC50 that Cn1c(=O)c(Oc2ccc(F)cc2)cc2cnnc(-c3ccc(F)cc3F)c21 showed for TNF-α induced IL-8 production in human whole blood is 6.56

###

- Test system: TNF-α production by LPS-activated THP1 cells
- Assay Info: Lipopolysaccharide-activated THP1 cell TNF production assay
- Assay type: cell-based
- Measurement Parameters: Homo sapiens, THP-1, 3 hours, read-out: IC50 in the THP-1 cellular TNF production assay
pIC50: −log10 of the molar value.
Measured Attribute: pIC50

1. Cn1c(=O)c(Nc2ccc(F)cc2F)cc2cnnc(-c3ccc(F)cc3F)c21 [Example 1]	≥ 6.00

Measured pIC50 of Cn1c(=O)c(Oc2ccc(F)cc2)cc2cnnc(-c3ccc(F)cc3F)c21 [Example 2] : ≥ 6.00

###

- Study System: human p38α (Homo sapiens, UniProt Q16539)
- Sequence (Q16539 whole entry): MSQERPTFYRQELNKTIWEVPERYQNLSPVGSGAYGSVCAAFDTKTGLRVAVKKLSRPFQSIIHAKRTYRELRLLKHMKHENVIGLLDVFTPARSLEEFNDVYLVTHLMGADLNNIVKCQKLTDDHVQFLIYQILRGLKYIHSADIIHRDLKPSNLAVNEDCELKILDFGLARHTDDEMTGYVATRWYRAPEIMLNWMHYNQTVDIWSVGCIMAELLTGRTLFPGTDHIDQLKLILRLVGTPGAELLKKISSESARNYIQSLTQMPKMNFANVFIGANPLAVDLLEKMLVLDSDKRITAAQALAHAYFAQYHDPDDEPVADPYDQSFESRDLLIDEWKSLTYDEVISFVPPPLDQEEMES
- Assay Info: Purified and activated recombinant human p38α HTRF kinase assay
- Measurement Parameters: recombinant human p38α 1 nM, 50 μM ATP, read-out: p38a IC50
Measured Attribute: IC50 (nM)
Numbers only, in nM.

The following compounds have reported results that may help.
1) Cn1c(=O)c(Nc2ccc(F)cn2)cc2cnnc(-c3ccc(F)cc3F)c21 [Example 4]	327
2) Cn1c(=O)c(Oc2ccc(F)cc2F)cc2cnnc(-c3ccc(F)cc3F)c21 [Example 12]	8.4
3) Cn1c(=O)c(Nc2ccc(F)cc2F)cc2cnnc(-c3ccc(C(F)(F)F)cc3F)c21 [Example 3]	2.3
4) Cn1c(=O)c(Nc2ccc(F)cc2F)cc2cnnc(-c3ccc(F)cc3F)c21 [Example 1]	0.8
5) CCn1c(=O)c(Nc2ccc(F)cc2F)cc2cnnc(-c3ccc(F)cc3F)c21 [Example 5]	0.2
6) Cn1c(=O)c(Nc2ccc(F)cc2)cc2cnnc(-c3ccc(F)cc3F)c21 [Example 11]	2.2
7) Cc1cc(S(C)(=O)=O)ccc1-c1nncc2cc(Oc3ccc(F)cc3F)c(=O)n(C)c12 [Example 9]	11
8) Cc1cc(S(C)(=O)=O)ccc1-c1nncc2cc(Nc3ccc(F)cc3F)c(=O)n(C)c12 [Example 8]	1.7

Could I get IC50 for every one of these entries?
1. Cn1c(=O)c(Nc2ncc(F)cc2F)cc2cnnc(-c3ccc(F)cc3F)c21 [Example 7]
2. Cn1c(=O)c(Nc2ccc(F)cc2F)cc2cnnc(-c3ccc(S(C)(=O)=O)cc3Cl)c21 [Example 10]
3. Cn1c(=O)c(Oc2ccc(F)cc2F)cc2cnnc(-c3ccccc3Cl)c21 [Example 6]

Result string:
111
0.8
0.6
